- assay target: beta-catenin (Homo sapiens, UniProt P35222)
- Construct: made in house; host or cells: E. coli BL21 (DE3) pLysS
- Sequence (P35222 134-665): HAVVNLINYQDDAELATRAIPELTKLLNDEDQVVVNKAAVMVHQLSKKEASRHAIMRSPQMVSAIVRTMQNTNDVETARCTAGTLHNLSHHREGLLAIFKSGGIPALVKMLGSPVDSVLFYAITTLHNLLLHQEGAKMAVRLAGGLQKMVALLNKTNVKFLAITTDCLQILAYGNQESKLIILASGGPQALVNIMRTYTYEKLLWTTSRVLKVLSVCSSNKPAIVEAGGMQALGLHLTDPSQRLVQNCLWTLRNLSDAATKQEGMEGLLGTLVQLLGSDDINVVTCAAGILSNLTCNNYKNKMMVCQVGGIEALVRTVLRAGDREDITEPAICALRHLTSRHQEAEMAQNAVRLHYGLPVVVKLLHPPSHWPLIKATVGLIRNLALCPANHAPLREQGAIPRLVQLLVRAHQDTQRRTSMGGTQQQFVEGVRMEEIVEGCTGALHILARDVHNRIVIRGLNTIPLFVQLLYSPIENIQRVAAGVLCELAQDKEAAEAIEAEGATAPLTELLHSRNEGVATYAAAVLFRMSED
- assay comment: Phage Library Screening with NGS, beta-catenin
- Type: binding
- measurement setup: beta-catenin target concentration 30; no competitor
readout kind: Target Concentration 30 (phage screen NGS readout)

DPAVIACYDAAFVCEYF: 0

A: DPAILDCSIAAIDCAYS
B: DPAILDCQIAAIECEFA
Recorded Target Concentration 30 (phage screen NGS readout) values differ for A and B ; which one is higher? Give the label under which the chosen entry appears.
B
(B: 22, A: 0)

A: DPAVFMCYEAAFECQYF
B: DPAFLTCHIAAWACSEQ
C: DPADDFCMWAAEHCELL
Could you please order the items by Target Concentration 30 (phage screen NGS readout), going from the lowest number to the highest? Give the labels in the order specified.
A, B, C
(A: 0, B: 1, C: 12)

P: DPASWDCDHAALLCTLD
Q: DPAILECHMAAFECYIE
R: DPAFLDCHIAAWTCNEF
Put the items in sequence by Target Concentration 30 (phage screen NGS readout), from largest down. Write the labels, ordered according to the request.
P, Q, R
(P: 6, Q: 2, R: 1)

1: DPANVECEWAAIHCSLV
2: DPAEVDCIMAAHICVWD
// which entry reports the smaller Target Concentration 30 (phage screen NGS readout), 1 or 2 ? Please respond with the label that marks your chosen entry.
2
(2: 0, 1: 2)

====

- assay target: beta-catenin (Homo sapiens)
- Construct: made in house; host or cells: E. coli BL21 (DE3) pLysS
- Sequence (P35222 134-665): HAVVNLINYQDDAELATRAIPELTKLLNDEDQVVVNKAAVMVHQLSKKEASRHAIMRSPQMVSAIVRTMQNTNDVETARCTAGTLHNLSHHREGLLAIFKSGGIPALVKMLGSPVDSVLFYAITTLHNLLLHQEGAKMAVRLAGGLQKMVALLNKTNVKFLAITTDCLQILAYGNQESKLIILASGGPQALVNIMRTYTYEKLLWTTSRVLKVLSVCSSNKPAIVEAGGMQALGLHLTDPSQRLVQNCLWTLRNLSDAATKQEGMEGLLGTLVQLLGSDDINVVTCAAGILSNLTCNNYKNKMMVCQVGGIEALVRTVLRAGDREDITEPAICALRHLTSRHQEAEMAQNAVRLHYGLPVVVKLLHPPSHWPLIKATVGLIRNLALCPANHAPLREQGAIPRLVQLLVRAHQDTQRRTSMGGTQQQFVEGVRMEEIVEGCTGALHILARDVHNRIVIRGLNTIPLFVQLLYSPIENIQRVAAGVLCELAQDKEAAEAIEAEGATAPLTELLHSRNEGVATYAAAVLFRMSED
- assay comment: Phage Library Screening with NGS, beta-catenin
- Assay type: binding
- measurement setup: BLANK, second column
readout kind: Target Concentration BLANK (phage screen NGS readout)

Example sequences with recorded Target Concentration BLANK (phage screen NGS readout):
DPAMWICEHAALNCEIR: 0
DPAEAICILAAHECWWD: 0
DPAMVTCYEAAYVCQYF: 0

a: DPAEWACEHAALTCWDQ
b: DPAVFECSLAAIDCLQI
c: DPAYTYCQWAAEHCSLL
Rank the items in ascending order with respect to Target Concentration BLANK (phage screen NGS readout). Lab note: final answer is the ordered label list.
b, c, a
